These data points were gathered from ChEMBL document CHEMBL3627670.

target: ADP-ribosylation factor GTPase-activating protein 1 (Rattus norvegicus); experiment: Inhibition of poly-histidine tagged full-length rat ARFGAP1 expressed in Sf9 cells assessed as remaining enzyme activity at 20 uM using purified WT ARF1 pre-loaded with [gamm-32P]-labeled GTP incubated for 5 mins before ARF1-GTP addition followed by 25 mins incubation by scintillation counting method
Measured Metric: Activity (%)

OC[C@H](Cc1ccccc1)Nc1nc(Oc2ccc3c(c2)CCC3)nc2c1ncn2CCOCc1ccccc1 = 109
CC(c1ccc(-c2ccccc2)cc1)n1cnc2c(N[C@H](CO)Cc3ccccc3)nc(Oc3ccc4c(c3)CCC4)nc21 (some centres undefined) = 36

P. OC[C@H](Cc1ccccc1)Nc1nc(Oc2ccc3c(c2)CCC3)nc2c1ncn2-c1ccc(-c2ccccc2)cc1
Q. c1ccc(CCNc2nc(Oc3cccc4ccccc34)nc3c2ncn3Cc2ccc(-c3ccccc3)cc2)cc1
Asked: Of the two listed items, P and Q , which carries the larger Activity figure? Answer by stating the label of the chosen item.
Given back: P
(P: 32%, Q: 20%)
